- Assay System: EGFR (human) (UniProt P00533)
pIC50: −log10 of the molar value.
Parameter Measured: pIC50

{"columns": ["Smiles Notation", "Numeric Readout"],
 "data": [
  ["O=C(C=CCN1CCOCC1)Nc1ccc2ncnc(Nc3cccc(Br)c3)c2c1", 7.13],
  ["COCC=CC(=O)Nc1ccc2ncnc(Nc3cccc(Br)c3)c2c1", 5.95]
]}

----------
- Assay System: EGFR (human)
- Stated Conditions: a431
pIC50: −log10 of the molar value.
Parameter Measured: pIC50

{"columns": ["Smiles Notation", "Numeric Readout"],
 "data": [
  ["COc1cc2cc3ncc(C#N)c(Nc4ccc(F)c(Cl)c4)c3cc2cc1OC", 6.17]
]}

----------
- Assay System: EGFR (human) (UniProt P00533)
pIC50: −log10 of the molar value.
Parameter Measured: pIC50

{"columns": ["Molecule", "Numeric Readout"],
 "data": [
  ["CC(Nc1ncnc2[nH]c(-c3ccc(O)cc3)cc12)c1ccccc1 (stereo unspecified)", 7.70]
]}

----------
Items are presented alongside their recorded pIC50.
- Assay System: EGFR (UniProt P00533)
- Sequence (P00533 whole entry, looked up): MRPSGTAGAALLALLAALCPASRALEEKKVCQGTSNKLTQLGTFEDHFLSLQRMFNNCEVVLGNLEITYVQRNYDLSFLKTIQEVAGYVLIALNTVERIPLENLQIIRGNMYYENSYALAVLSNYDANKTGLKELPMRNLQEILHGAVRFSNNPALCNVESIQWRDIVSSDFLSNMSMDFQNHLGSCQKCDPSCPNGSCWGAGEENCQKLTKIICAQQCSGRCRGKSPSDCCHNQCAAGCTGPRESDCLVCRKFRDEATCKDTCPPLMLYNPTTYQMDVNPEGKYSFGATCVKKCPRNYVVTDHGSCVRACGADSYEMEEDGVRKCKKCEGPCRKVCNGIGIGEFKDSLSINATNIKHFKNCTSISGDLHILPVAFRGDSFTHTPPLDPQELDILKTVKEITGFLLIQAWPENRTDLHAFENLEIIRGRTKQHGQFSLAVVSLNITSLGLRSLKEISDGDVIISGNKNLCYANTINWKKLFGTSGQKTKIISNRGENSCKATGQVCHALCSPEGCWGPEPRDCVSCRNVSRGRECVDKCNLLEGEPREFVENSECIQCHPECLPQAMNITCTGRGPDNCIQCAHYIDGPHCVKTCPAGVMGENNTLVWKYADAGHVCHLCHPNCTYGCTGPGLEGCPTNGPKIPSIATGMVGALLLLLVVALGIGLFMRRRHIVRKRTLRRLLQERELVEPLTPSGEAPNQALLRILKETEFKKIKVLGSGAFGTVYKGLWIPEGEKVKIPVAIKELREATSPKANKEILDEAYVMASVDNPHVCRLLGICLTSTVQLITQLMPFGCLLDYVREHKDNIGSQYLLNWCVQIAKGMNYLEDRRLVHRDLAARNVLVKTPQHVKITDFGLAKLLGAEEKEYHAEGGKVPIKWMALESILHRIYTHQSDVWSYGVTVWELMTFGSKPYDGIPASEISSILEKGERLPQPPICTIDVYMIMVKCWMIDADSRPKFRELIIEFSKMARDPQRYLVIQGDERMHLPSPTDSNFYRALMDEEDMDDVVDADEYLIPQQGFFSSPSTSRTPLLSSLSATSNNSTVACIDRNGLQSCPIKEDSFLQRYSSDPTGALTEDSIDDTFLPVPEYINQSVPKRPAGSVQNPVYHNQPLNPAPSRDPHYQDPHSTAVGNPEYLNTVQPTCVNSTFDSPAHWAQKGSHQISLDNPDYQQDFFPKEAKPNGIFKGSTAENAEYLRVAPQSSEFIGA
pIC50: −log10 of the molar value.

{"columns": ["Smiles Notation", "pIC50"],
 "data": [
  ["N#C/C(=C\\c1ccc(O)c(O)c1)C(=O)NCCCCc1ccccc1", 5.30],
  ["N#C/C(=C\\c1ccc(O)c(O)c1)C(=O)NCCCc1ccccc1", 6.15]
]}

----------
- Assay System: ROCK2 (human)
- Assay: Enzyme Assay
Reported IC50 values for a set of compounds
Parameter Measured: IC50 (nM)

{"columns": ["Smiles Notation", "Quantity Unit", "Op", "Numeric Readout"],
 "data": [
  ["NCc1ccc(C(=O)Nc2ccncc2F)cc1-c1cccc(C(=O)Nc2ccc(C(=O)O)cc2)c1", "nM", "=", 4.1],
  ["CC(C)OC(=O)Cc1cccc(NC(=O)c2cccc(-c3cc(C(=O)Nc4ccncc4F)ccc3CN)c2)c1", "nM", "<", 1]
]}

----------
- Assay System: PIK3CA (UniProt P42336)
- Sequence (P42336 whole entry, looked up): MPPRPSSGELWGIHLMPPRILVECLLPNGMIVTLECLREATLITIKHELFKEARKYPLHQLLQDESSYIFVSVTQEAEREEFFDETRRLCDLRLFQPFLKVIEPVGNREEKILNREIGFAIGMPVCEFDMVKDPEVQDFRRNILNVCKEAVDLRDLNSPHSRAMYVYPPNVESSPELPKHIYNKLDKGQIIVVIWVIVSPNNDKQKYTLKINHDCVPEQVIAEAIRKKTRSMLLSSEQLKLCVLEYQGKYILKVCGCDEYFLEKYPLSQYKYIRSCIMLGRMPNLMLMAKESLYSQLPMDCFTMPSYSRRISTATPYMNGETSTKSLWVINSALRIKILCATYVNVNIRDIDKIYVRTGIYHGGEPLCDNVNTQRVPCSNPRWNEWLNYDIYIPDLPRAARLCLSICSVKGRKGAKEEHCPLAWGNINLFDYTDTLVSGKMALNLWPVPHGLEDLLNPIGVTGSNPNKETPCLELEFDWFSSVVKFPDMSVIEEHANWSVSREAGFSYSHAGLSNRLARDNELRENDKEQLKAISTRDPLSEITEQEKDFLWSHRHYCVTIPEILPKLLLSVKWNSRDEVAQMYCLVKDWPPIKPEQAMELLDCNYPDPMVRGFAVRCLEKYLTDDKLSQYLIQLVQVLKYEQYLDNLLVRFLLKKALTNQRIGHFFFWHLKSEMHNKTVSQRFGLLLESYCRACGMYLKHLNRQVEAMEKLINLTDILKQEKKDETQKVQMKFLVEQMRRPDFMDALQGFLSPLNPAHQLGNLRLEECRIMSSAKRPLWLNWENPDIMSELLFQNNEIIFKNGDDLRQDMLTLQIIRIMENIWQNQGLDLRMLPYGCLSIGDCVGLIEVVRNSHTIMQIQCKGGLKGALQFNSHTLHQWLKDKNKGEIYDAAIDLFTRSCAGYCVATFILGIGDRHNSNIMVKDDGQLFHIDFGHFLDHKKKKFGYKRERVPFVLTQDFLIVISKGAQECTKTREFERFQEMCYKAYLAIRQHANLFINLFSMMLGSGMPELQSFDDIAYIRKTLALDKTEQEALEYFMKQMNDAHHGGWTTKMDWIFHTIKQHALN
pIC50: −log10 of the molar value.

{"columns": ["Smiles Notation", "pIC50"],
 "data": [
  ["O=c1c(O)c(-c2ccc(O)c(O)c2)oc2cc(O)cc(O)c12", 5.42]
]}

----------
- Assay System: EGFR (human), P00533 [L861Q]
- Sequence (P00533 whole entry L861Q, looked up): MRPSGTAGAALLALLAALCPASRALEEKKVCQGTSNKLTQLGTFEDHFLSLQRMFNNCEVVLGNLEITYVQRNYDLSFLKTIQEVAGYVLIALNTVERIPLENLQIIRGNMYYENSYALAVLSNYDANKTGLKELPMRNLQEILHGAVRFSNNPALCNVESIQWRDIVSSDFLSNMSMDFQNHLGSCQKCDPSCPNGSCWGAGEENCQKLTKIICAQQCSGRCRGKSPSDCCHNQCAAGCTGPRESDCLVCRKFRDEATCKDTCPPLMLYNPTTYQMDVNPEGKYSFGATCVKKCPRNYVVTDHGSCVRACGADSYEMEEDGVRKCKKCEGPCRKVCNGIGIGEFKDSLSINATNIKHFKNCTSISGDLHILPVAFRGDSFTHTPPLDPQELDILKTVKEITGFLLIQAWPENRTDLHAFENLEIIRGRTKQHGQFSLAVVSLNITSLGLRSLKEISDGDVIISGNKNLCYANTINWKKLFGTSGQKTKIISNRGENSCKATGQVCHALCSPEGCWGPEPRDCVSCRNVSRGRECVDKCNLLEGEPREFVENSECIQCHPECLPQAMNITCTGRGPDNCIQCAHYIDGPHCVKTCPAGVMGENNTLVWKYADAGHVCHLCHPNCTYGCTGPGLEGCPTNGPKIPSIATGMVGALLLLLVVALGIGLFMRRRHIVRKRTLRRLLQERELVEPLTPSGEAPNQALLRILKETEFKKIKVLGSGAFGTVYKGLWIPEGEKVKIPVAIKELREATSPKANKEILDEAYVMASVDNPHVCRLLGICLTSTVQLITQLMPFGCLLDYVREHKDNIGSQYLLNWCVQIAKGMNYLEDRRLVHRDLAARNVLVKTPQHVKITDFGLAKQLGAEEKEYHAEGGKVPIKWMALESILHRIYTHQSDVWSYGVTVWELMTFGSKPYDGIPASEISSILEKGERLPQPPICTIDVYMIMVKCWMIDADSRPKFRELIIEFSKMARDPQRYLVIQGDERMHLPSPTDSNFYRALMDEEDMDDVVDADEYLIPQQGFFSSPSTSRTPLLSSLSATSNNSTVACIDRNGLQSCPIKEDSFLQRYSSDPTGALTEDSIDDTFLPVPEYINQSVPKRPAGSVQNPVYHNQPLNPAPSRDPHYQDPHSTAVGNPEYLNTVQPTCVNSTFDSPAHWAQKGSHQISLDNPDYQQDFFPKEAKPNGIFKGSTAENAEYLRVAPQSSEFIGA

{"columns": ["Smiles Notation", "IC50"],
 "data": [
  ["CN(C)C/C=C/C(=O)Nc1cccc(C(=O)Nc2ccc(Nc3nccc(-c4c(-c5ccccc5)nn5ccccc45)n3)cc2)c1", "21 nM"]
]}

----------
- Assay System: UniProt P24941
- Assay: Enzyme Assay
pIC50: −log10 of the molar value.

{"columns": ["Smiles Notation", "pIC50"],
 "data": [
  ["NC1=NC(=O)/C(=C2\\CCNC(=O)c3[nH]c(Br)cc32)N1", 7.40]
]}

----------
- Assay System: EGFR (human) (UniProt P00533)
- Stated Conditions: A431 epidermoid carcinoma
pIC50: −log10 of the molar value.
Parameter Measured: pIC50

{"columns": ["Smiles Notation", "Parameter Measured", "Result"],
 "data": [
  ["Cn1c(SSc2c(C(=O)Nc3ccccc3)c3ccc(C(F)(F)F)cc3n2C)c(C(=O)Nc2ccccc2)c2cc(C(F)(F)F)ccc21", "pIC50", "< 4.00"]
]}

----------
- Assay System: UniProt Q16539
- Assay: Inhibition of MAPK14 Kinase Activity
- Stated Conditions: concentration not given here

{"columns": ["Smiles Notation", "inhibition"],
 "data": [
  ["CN(C)c1nc2c(Br)c(Br)c(Br)c(Br)c2[nH]1", "15%"],
  ["Nc1n[nH]c(N)c1N=Nc1ccc(O)cc1", "18%"],
  ["NC(=O)c1cccc(Cl)c1N1C(=O)NCc2nc(Sc3ccc(F)cc3)ccc21", "46%"],
  ["Brc1c(Br)c(Br)c2[nH]nnc2c1Br", "-7%"],
  ["O=C1NCc2nc(Sc3ccc(Sc4ccc(F)cc4)cc3)ccc2N1c1c(Cl)cccc1Cl", "-6%"]
]}

----------
pIC50: recorded values
- Assay System: PIK3CG (human)
- Assay: Enzyme Assay
pIC50: −log10 of the molar value.

{"columns": ["Smiles Notation", "Op", "pIC50"],
 "data": [
  ["Nc1nc2cc(-c3nn(C4CCOCC4)c4ncnc(N)c34)ccc2o1", ">", 7.00],
  ["O=C(Nc1cccc(CO)c1)Nc1cccc(-c2nc(N3CCOCC3)c3ncccc3n2)c1", "=", 4.66],
  ["Oc1cccc(-c2nc(N3CCOCC3)nc3cccnc23)c1", "=", 5.97],
  ["C[C@H](Nc1ncnc2ccc(Cl)nc12)c1nc2c(F)ccc(Cl)c2c(=O)n1N1CCNCC1", "=", 5.51]
]}

----------
- Assay System: PIK3CD (Human)
- Assay: Cellular Inhibition of PIK3CD Kinase in Raji (Burkitt’s Lymphoma) Cells

{"columns": ["Smiles Notation", "IC50"],
 "data": [
  ["CC(C)(Cc1ccccc1Br)Nc1nc(N2CCOCC2)nc(-n2c(C(F)F)nc3ccccc32)n1", "< 100 nM"]
]}

----------
Measured pIC50 of individual entries
- Assay System: MAPK14 (UniProt Q16539)
- Sequence (Q16539 whole entry, looked up): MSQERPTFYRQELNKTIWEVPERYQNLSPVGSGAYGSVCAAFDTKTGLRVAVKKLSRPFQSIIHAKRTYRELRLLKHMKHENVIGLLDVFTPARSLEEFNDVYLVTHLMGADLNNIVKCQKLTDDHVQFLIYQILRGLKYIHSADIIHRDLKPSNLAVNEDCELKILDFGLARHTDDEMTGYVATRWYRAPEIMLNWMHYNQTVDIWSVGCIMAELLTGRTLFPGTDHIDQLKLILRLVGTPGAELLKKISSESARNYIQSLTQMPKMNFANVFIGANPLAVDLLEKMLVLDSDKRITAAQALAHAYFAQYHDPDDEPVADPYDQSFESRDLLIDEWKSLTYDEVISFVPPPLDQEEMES
- Assay: p38 Inhibition
pIC50: −log10 of the molar value.
Parameter Measured: pIC50

{"columns": ["Smiles Notation", "Parameter Measured", "Result"],
 "data": [
  ["O=C(CCCNc1ncc(C(F)(F)F)cc1Cl)NNS(=O)(=O)c1ccc(CNC(=O)c2cccc([N+](=O)[O-])c2)s1", "pIC50", "< 4.52"],
  ["O=C(NCc1ccc(S(=O)(=O)NNC(=O)c2csc(COc3ccccc3Cl)n2)s1)c1ccc(Cl)cc1", "pIC50", "< 4.52"],
  ["O=C(CNS(=O)(=O)c1ccc(CNC(=O)c2ccc(Cl)cc2)s1)Nc1cccc(S(=O)(=O)C(F)(F)F)c1", "pIC50", "< 4.52"],
  ["O=C(CCCNc1ncc(C(F)(F)F)cc1Cl)NNS(=O)(=O)c1ccc(CNC(=O)c2cccc(O)c2)s1", "pIC50", "< 4.52"],
  ["O=c1c(-c2ccncc2)c(-c2ccc(F)cc2)[nH]n1-c1ccc(Cl)cc1", "pIC50", 7.46],
  ["O=C(CCCNc1ncc(C(F)(F)F)cc1Cl)NNS(=O)(=O)c1ccc(CNC(=O)c2ccc(Cl)cc2)cc1", "pIC50", "< 4.52"],
  ["O=C(NCc1ccc(S(=O)(=O)NNC(=O)c2csc(-c3ccc(C4SCCS4)cc3)n2)s1)c1ccc(Cl)cc1", "pIC50", "< 4.52"],
  ["Cc1cc(-c2c(-c3ccc(F)cc3)ncn2CCCN2CCOCC2)nc(N)n1", "pIC50", "< 4.77"],
  ["O=C(CNS(=O)(=O)c1ccc(CNC(=O)c2ccc(Cl)cc2)s1)NCCNc1ncc(C(F)(F)F)cc1Cl", "pIC50", "< 4.52"],
  ["Cc1cc(-c2c(-c3ccc(F)cc3)ncn2CCCN2CCOCC2)cc(C)n1", "pIC50", "< 4.77"]
]}

----------
- Assay System: UniProt Q16539
- Assay: Assessment of MAPK14 Kinase Activity
- Stated Conditions: concentration not given here
Each entry below lists one item and its recorded inhibition value.
Parameter Measured: inhibition (%)

{"columns": ["Molecule", "Assay System", "Numeric Readout"],
 "data": [
  ["O=S(=O)(c1cccc2cnccc12)N1CCCNCC1", "UniProt Q16539", -8],
  ["CC1=C(C(=O)Nc2cc3cn[nH]c3cc2F)C(c2ccc(C(F)(F)F)cc2)CC(=O)N1 (stereo not given)", "UniProt Q16539", -3],
  ["C[C@@H](N)[C@H]1CC[C@H](C(=O)Nc2ccncc2)CC1", "UniProt Q16539", -3],
  ["CCn1c(-c2nonc2N)nc2cnc(Oc3cccc(NC(=O)c4ccc(OCCN5CCOCC5)cc4)c3)cc21", "UniProt Q16539", -8],
  ["Cc1cncc2cccc(S(=O)(=O)N3CCCNC[C@@H]3C)c12", "UniProt Q16539", -9]
]}

----------
- Assay System: UniProtKB P48736
- Sequence (P48736 whole entry, looked up): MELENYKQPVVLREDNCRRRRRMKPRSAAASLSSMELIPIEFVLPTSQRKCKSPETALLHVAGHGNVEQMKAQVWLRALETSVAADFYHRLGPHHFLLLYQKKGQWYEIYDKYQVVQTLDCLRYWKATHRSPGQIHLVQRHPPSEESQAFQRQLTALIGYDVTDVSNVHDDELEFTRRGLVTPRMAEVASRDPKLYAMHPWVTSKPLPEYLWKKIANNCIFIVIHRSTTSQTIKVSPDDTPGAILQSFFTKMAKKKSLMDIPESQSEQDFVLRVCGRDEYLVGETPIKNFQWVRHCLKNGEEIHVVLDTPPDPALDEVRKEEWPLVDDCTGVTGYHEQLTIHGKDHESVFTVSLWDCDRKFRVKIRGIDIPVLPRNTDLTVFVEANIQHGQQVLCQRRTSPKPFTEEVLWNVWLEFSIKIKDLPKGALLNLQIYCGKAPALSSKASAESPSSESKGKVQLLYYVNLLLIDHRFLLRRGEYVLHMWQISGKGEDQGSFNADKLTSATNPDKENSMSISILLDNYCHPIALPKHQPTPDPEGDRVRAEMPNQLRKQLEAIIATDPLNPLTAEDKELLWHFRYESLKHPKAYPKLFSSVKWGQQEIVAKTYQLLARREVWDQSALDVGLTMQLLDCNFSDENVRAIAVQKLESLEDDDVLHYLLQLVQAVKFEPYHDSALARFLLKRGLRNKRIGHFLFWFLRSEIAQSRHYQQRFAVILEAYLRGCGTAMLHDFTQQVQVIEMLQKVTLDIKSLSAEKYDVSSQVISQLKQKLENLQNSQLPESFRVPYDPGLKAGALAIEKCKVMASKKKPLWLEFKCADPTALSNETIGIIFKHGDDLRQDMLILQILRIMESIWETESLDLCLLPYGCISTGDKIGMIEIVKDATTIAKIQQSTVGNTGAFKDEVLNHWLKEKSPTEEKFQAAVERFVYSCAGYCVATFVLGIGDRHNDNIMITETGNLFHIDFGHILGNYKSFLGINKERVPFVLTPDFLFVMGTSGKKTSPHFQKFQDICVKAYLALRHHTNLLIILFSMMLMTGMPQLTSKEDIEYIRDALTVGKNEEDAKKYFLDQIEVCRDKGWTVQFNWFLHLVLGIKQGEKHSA
- Assay: Inhibition of PIK3CA/PIK3CB/PIK3CD/PIK3CG Kinase Activity
pIC50: −log10 of the molar value.

{"columns": ["Smiles Notation", "pIC50"],
 "data": [
  ["Cc1cccc2cc(CNc3ccnc(C(N)=O)c3)c(-c3ccccc3Cl)nc12", 4.82],
  ["C[C@H](Nc1nc(N)ncc1Cl)c1cc2cccc(Cl)c2nc1-c1ccccn1", 6.98],
  ["Nc1ncc(F)c(NCc2cc3cccc(Cl)c3nc2-c2ccccc2Cl)n1", 6.04],
  ["Fc1cnc(Cl)nc1NCc1cc2cccc(Cl)c2nc1-c1ccccc1Cl", 5.49],
  ["COc1c(Cl)ncnc1NCc1cc2cccc(Cl)c2nc1-c1ccccc1", 6.14]
]}
